FYI, the data here is from patent US11339147B2.

# target system: glutathione-S-transferase-labeled FXR human protein (Homo sapiens)
# Construct: purchased Invitrogen
# Sequence (Q96RI1 whole entry): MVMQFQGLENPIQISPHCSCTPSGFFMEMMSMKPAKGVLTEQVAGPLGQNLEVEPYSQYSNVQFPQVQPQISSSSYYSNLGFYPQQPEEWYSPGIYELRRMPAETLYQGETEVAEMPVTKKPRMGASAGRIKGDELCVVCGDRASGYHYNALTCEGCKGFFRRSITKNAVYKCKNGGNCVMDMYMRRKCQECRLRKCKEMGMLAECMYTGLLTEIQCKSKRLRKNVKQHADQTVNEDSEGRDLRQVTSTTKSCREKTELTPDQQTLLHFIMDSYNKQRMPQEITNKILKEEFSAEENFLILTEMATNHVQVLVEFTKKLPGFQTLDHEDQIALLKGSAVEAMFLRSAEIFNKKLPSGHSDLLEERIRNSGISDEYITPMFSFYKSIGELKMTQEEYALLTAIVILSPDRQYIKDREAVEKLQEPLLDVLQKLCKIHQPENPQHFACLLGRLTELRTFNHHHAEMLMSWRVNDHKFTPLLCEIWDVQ
# method notes: FXR biochemical experiment (alphascreen, coactivator recruitment)
# conditions: highest signal relative to reference compound chenodeoxycholic acid (Examples 1-30); read-out: FXR enzyme activity Efficacy (activation efficacy percent)
Measured Emax values are reported for all entries that follow.
Provide the measurement as a number trailed by its unit.

Below, each entry is followed by its recorded Emax result.
compound	Emax
O=C(O)C12CC(CN3C(=O)C4(CC4)c4cc(OCc5c(-c6c(Cl)cccc6Cl)noc5C5CC5)ccc43)(C1)C2	95%
O=C(O)c1ccc(N2C(=O)C3(CC3)c3cc(OCc4c(-c5c(Cl)cccc5Cl)noc4C4CC4)ccc32)cc1F	312%

Exam item: Name the recorded Emax of the compound listed here: O=C(O)c1ccc(N2C(=O)C3(CC3)c3cc(OCc4c(-c5c(Cl)cccc5Cl)noc4C4CC4)ccc32)s1
Marked response: 242%

Exam item: Find the measured Emax of O=C(O)c1ccc(N2C(=O)C3(CC3)c3ccc(OCc4c(-c5c(Cl)cccc5Cl)noc4C4CC4)cc32)cc1 and report it.
Marked response: 33%

Exam item: Supply Emax value. Item: CC1(C)C(=O)N(c2ccc(C(=O)O)cc2)c2ccc(OCc3c(-c4c(Cl)cccc4Cl)noc3C3CC3)cc21
Marked response: 163%
